The reported measurements were obtained from PubChem BioAssay.

- Tested system: Torsin-1A (Homo sapiens)
- Assay details: small-molecule binders of mutant TOR1A in lysate, primary screen, cell lysate, small-molecule microarray, COS7 lysate, 635/667 nm fluorescence (AID 1150);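 note: score pools 667 nm emission and signal to noise measuring lysate protein binding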
- Condition label: COS7 hTOR1A mutant lysate, 635 nm fluorescence, higher = more signal
Decide by composite z-score: equal to or exceeding 0.5 means Met, less means Not met.

>  <Molecule>
C=C(C(=O)CC[C@@H](OC(=O)c1cccnc1)c1cccc(OCCO)c1)C(C)C

>  <Tested system>
Torsin-1A (Homo sapiens)

>  <Label>
Not met

$$$$

Evaluate CC(=O)NCCCC[C@@H]1NC(=O)[C@H]2C[C@@H](C(=O)NCCCCCN)[C@@H](c3ccc(O)cc3)N2C1=O : composite z-score at minimum 0.5?
Met

Does the reported composite z-score for CC(C)(C)OC(=O)N1[C@@H](C=C(Br)Br)COC1(C)C fall at or above the 0.5 mark?
Met

Assess whether reported composite z-score for NCCCCCCNC(=O)[C@@H]1C[C@@H]2C(=O)NCC(=O)N2[C@@H]1c1cccc(OCCO)c1 sits at 0.5 or higher.
Met

Is the recorded value of composite z-score equal to or greater than 0.5 for this molecule? CC(C)N1C(=O)[C@@]2(Cc3ccccc31)c1ccccc1C(=O)N(Cc1ccccc1C(F)(F)F)[C@H]2c1ccc(CO)cc1
Not met

---

Consider the following compounds; for each one, report its z-score.
- Assay details: E. coli acrAB mutant growth effects, primary screen, E. coli filamentation inducers, strain DRC39, OD650, 24 h (AID 1178);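 note: growth measured as culture turbidity by optical density at 650 nm; test concentration not given here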
- Condition label: higher = more signal, called active from +8 up or from −8 down
Give bare numbers.

Use the examples below as a reference point.
>  <Compound>
Cc1ccc(S[C@]2(C(=O)NCC(C)C)CC(=O)N(C(C)C)[C@@H]2c2ccc(CO)cc2I)cc1

>  <Observed result>
0.485

$$$$
>  <Compound>
C=CCNC(=O)[C@@H]1[C@H]2C(=O)O[C@H](c3ccccc3)[C@H](c3ccccc3)N2[C@H](c2ccc(O)cc2)[C@@]12C(=O)N(C(=O)OCCOC)c1ccc(C#CCC(C(=O)OC)C(=O)OC)cc12

>  <Observed result>
1.09

$$$$

Please give z-score for each item listed below.
1. COc1ccc([Si](C)(C)[C@@H]2[C@@H](CC(=O)N3CCC[C@H]3CO)O[C@]3(C(=O)N(Cc4cccc(N5C(=O)c6cccc7cccc5c67)c4)c4ccccc43)[C@H]2C)cc1
2. O=C1O[C@H](c2ccccc2)[C@H](c2ccccc2)N2[C@H]1[C@@H](C(=O)O)[C@]1(C(=O)Nc3ccc(C#CC4(O)CCCCCC4)cc31)[C@H]2c1ccccc1OCCO
3. C[C@]1(C(=O)NC2CC2)c2ccccc2C(=O)N(Cc2cc(F)cc(C(F)(F)F)c2)[C@H]1c1ccc(CO)cc1
4. CC(C)c1ccc(NN2C(C(O)C(C)c3ccccc3)C=CC3C(=O)N(c4ccccc4)C(=O)C32)cc1 (configuration not stated)
5. O=C1O[C@H](c2ccccc2)[C@H](c2ccccc2)N2[C@H]1[C@@H](C(=O)N1CCCCCCC1)[C@]1(C(=O)Nc3ccc(C#CCCO)cc31)[C@H]2c1ccc(O)cc1
6. O=C1O[C@H](c2ccccc2)[C@H](c2ccccc2)N2[C@H]1[C@@H](C(=O)Nc1nc3ccccc3s1)[C@]1(C(=O)Nc3ccccc31)[C@H]2c1ccccc1OCCO
7. COC(=O)[C@@]1(Cc2ccc(F)cc2)[C@H]2c3cc(C(=O)N(C)C)n(Cc4ccc(C(F)(F)F)nc4)c3C[C@H]2CN1C(=O)c1ccccc1
8. COC(=O)c1ccc(OC)c(/C=C\CC(OC(=O)c2ccncc2)c2ccccc2)c1 (configuration not stated)

0.995
0.703
0.425
-0.828
0.783
-0.0179
-0.532
2.57

Can you give me z-score for all of these, one by one?
1. COc1ccc(C(=O)Nc2ccc(CN3C(=O)[C@]4(O[C@H](CC(=O)N(CCO)Cc5ccccc5)[C@@H]([Si](C)(C)c5ccc(OC)cc5)[C@@H]4C)c4ccccc43)cc2)cc1
2. Cc1c(NC(=O)/C(C#N)=C/C=C/c2ccc([N+](=O)[O-])cc2)c(=O)n(-c2ccccc2)n1C
3. CC(C)N1C(=O)[C@@]2(Cc3ccccc31)c1ccccc1C(=O)N(Cc1ccccc1C(F)(F)F)[C@H]2c1ccc(CO)cc1
4. COC(=O)C(CC#Cc1ccc2c(c1)[C@]1(C(=O)N2)[C@H](C(N)=O)[C@H]2C(=O)O[C@H](c3ccccc3)[C@H](c3ccccc3)N2[C@@H]1c1ccccc1OCCO)C(=O)OC
5. COc1ccc(-c2cc3c(c(CCc4ccccc4)n2)[Si](C(C)C)(C(C)C)O[C@H]3c2ccccc2)cn1
6. Cc1ccc(S[C@]2(C(=O)NCCN3CCOCC3)CC(=O)N(C(C)C)[C@@H]2c2ccc(CO)cc2I)cc1

-0.225
-0.465
-0.0949
0.0025
-1.19
1.16

Please go through the list and note z-score for each compound.
1. O=C1OCCC/C=C\[C@H]2OC34C=CCN(Cc5ccccc5)C(=O)[C@H]3N(CCO)C(=O)[C@@H]4C12 (some centres not stated)
2. COc1ccc(C(O)C2C=CC3C(=O)N(C)C(=O)C3N2Nc2ccccc2)cc1 (configuration not stated)
3. CC(C)c1ccc(NN2C(C(O)c3ccccc3)C=CC3C(=O)N(c4ccccc4)C(=O)C32)cc1 (configuration not stated)

1: 1.68; 2: -0.386; 3: 0.493

Each compound below has a recorded value; state its z-score.
1. Cc1cccc([C@H]2C[C@H]3C(Br)=C[C@@]2(CO)C(=O)[C@]32CO2)c1
2. [N-]=[N+]=NCc1ccccc1C[C@@]1(C(=O)NCCN2CCOCC2)N=C(c2ccc(OCCCO)cc2)O[C@@H]1c1ccccc1
3. O=C1O[C@@H](c2ccccc2)[C@@H](c2ccccc2)N2[C@@H](c3ccccc3OCCO)[C@]3(C(=O)Nc4ccc(C#CC5(O)CCCCCC5)cc43)[C@@H](C(=O)N3CCCCCCC3)[C@H]12
4. CC1CC/C=C\[C@H]2OC34C=CCN(C(C)C)C(=O)[C@H]3N(C(C)CO)C(=O)[C@@H]4C2C(=O)O1 (some centres not stated)

[0.258, 0.594, -0.36, 0.355]

// each compound listed below needs its z-score
1. COc1ccc([Si](C)(C)[C@H]2[C@H](CC(=O)N(CCO)Cc3ccccc3)O[C@@]3(C(=O)N(Cc4ccc(N5C(=O)c6cccc7cccc5c67)cc4)c4ccccc43)[C@@H]2C)cc1
2. [N-]=[N+]=Nc1ccccc1C[C@]1(C(=O)N2CCCCC2)N=C(c2ccc(OCCCO)cc2)O[C@H]1c1ccccc1
3. CC(C)[Si](C#Cc1ccccc1)(O[C@H](c1ccccc1)c1cn(Cc2ccccc2)nn1)C(C)C
4. COC(=O)[C@@]1(Cc2ccc(F)cc2)[C@H]2c3cc(C(=O)N4CCCC4)n(Cc4ccc(C(F)(F)F)nc4)c3C[C@H]2CN1C(=O)c1ccccc1

-0.838
0.463
1.67
-0.83

---

- Tested on: Lefty1
- Assay details: Lefty1 binders on small-molecule microarrays, primary screen, biochemical, small-molecule microarray, 635/667 nm fluorescence (AID 1139)
- Condition label: small-molecule microarray binding, fluorescence 635/667; higher = more signal
Parameter threshold = 0.2. Response is label 1 when composite z-score meets or exceeds it, else label 0.

Would you please look over these solved cases?
>  <Molecule>
CCCCC(=C=CC[C@@H](O)c1ccc(OCCO)cc1)CCO

>  <Label>
label 1

$$$$
>  <Molecule>
COc1ccc(C(=O)Nc2cccc(CN3C(=O)[C@]4(O[C@H](CC(=O)N(CCO)Cc5ccccc5)[C@@H]([Si](C)(C)c5ccc(OC)cc5)[C@@H]4C)c4ccccc43)c2)cc1

>  <Label>
label 1

$$$$
>  <Molecule>
COC(=O)[C@@]1(Cc2ccc(OC)cc2)[C@H]2c3cc(C(=O)N(C)C)n(Cc4c(CO)[nH]cc(C)c4=O)c3C[C@H]2CN1C(=O)c1ccccc1

>  <Label>
label 0

$$$$

Does COC(=O)C1=CC(CCCO)=CC(c2ccc(CN3CCCC3)cc2)N(C)C=C1C(=O)OC (stereo not given) have a reported composite z-score of at least 0.2?
label 0

Quick check, composite z-score >= 0.2? O=C(NCCN1CCOCC1)[C@@H]1c2ccccc2C(=O)N(CC23CC4CC(CC(C4)C2)C3)[C@H]1c1ccc(CO)cc1
label 1

---

Record form. Attribute: composite z-score. Fill in for each entry.
- Tested system: Left-right determination factor 2 (Homo sapiens)
- Assay details: LEFTY2 binders on small-molecule microarrays, primary screen, biochemical, small-molecule microarray, 635 nm fluorescence scan (AID 1110)
- Condition label: LEFTY2 binding, higher = more signal
Numbers only.

>  <Compound>
C=CC[C@H](OC(=O)Nc1ccc(SC)cc1)c1ccc(O)c(F)c1

>  <Measure>
composite z-score

>  <Observed result>
-0.722

$$$$
>  <Compound>
OCCCc1cc[n+](Cc2cc3c(cc2Br)OCO3)cc1

>  <Measure>
composite z-score

>  <Observed result>
-1.12

$$$$
>  <Compound>
CC1CC/C=C\[C@H]2OC34C=CCN(C(C)C)C(=O)[C@H]3N(C(C)CO)C(=O)[C@@H]4C2C(=O)O1 (stereo partly drawn)

>  <Measure>
composite z-score

>  <Observed result>
-0.334

$$$$

Give measured composite z-score for every item shown.
1. CC(C)[Si](C#Cc1ccccc1)(O[C@H](c1ccccc1)c1cn(Cc2ccccc2)nn1)C(C)C
2. CC(C)N1CC=CC23O[C@@H]4/C=C\CCCOC(=O)C4[C@H]2C(=O)N(C(C)CO)[C@@H]3C1=O (stereo partly drawn)
3. Cc1c(NC(=O)/C(C#N)=C/C=C/c2ccc([N+](=O)[O-])cc2)c(=O)n(-c2ccccc2)n1C
4. C=C(/C=C\CNS(=O)(=O)c1ccc(C)cc1)[C@H](O)[C@H]1CCCN1S(=O)(=O)c1ccccc1[N+](=O)[O-]
5. CC(C)N1C(=O)[C@@]2(Cc3ccccc31)c1ccccc1C(=O)N(Cc1ccccc1C(F)(F)F)[C@H]2c1ccc(CO)cc1

1: 0.0441; 2: -0.794; 3: 0.328; 4: 0.318; 5: -0.0311
